Hello, the source for this data is paper PMC11747885, in case you need it.

Parameter Top (best-fit value): see the listing below.
# target under test: Rlig1-AMP (Homo sapiens)
# Construct: made in house; host or cells: E. coli BL21 (DE3), pET15b-Rlig1
# Sequence (Q8N999 whole entry): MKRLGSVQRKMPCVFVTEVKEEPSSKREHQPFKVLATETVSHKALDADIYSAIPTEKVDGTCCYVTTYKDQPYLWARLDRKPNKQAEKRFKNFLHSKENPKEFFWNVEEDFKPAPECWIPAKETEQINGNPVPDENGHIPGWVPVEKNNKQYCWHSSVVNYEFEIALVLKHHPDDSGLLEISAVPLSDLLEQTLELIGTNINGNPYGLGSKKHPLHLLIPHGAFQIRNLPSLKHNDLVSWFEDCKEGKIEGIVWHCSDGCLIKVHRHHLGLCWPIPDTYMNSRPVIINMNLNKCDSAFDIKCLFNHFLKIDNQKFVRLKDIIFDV
# measurement notes: Radioactive RNA ligation assay (hit validation, 10 µM test and IC50 determination)
# Assay type: biochemical
# condition notes: log(inhibitor) vs. response, variable slope (four parameters)
Answer using only a numeral; do not append any unit.

compound	recorded number
Cc1cc(Nc2ccc(NC(=O)c3ccc(Nc4ccnc5[nH]ccc45)cc3)cc2)nc(N)n1 [Compound 46]	98.16
Nc1nccc(Nc2ccc(NC(=O)c3ccc(Nc4ncnc5ccccc45)cc3)cc2)n1 [Compound 47]	98.28

Lab note: next compound to report on.
INPUT: Look up Top (best-fit value) of Nc1cc(Nc2ccc(NC(=O)c3ccc(Nc4ccnc5ccccc45)cc3)cc2)ccn1 [Compound 36] and report it.
OUTPUT: 101
